Values from patent US20160279215A1

- target.or.test.system: HLA-A*02:01 (Homo sapiens, UniProt P04439, D140Y/D185E/D98H/E176V/E277Q/G131W/G231S/I119V/I121R/I166T/I218V/L300P/L318F/N151K/N90K/P208A/P217A/Q86G/Q94H/R138H/R169H/T345S)
- Construct: made in house
- test.description: MHC binding assay: UV-ligand exchange with β2m ELISA (peptide exchange yield)
- assay.setup: binding to HLA-A*02:01 evaluated by peptide exchange yield (UV-ligand exchange, β2m ELISA)

substance | Peptide exchange
188 (VLGEEQEGV; listed as Homo sapiens) [compound 188] | ++ (≧20% = ++)
97 (KLFEKSTGL; listed as Homo sapiens) [compound 97] | +++ (≧50 = +++)
251 (LLWGNLPEI; listed as Homo sapiens) [compound 251] | +++ (≧50 = +++)
229 (YLYELEHAL; listed as Homo sapiens) [compound 229] | ++ (≧20% = ++)
21 (YLMDDFSSL; listed as Homo sapiens) [compound 21] | +++ (≧50 = +++)
214 (ALFETLIQL; listed as Homo sapiens) [compound 214] | +++ (≧50 = +++)
44 (AVFNLVHVV; listed as Homo sapiens) [compound 44] | +++ (≧50 = +++)
9 (SLITGQDLLSV; listed as Homo sapiens) [compound 9] | +++ (≧50 = +++)
169 (ALADLSVAV; listed as Homo sapiens) [compound 169] | +++ (≧50 = +++)
138 (GIINKLVTV; listed as Homo sapiens) [compound 138] | ++ (≧20% = ++)
129 (KMASKVTQV; listed as Homo sapiens) [compound 129] | ++ (≧20% = ++)
174 (ALYSGDLHAA; listed as Homo sapiens) [compound 174] | ++ (≧20% = ++)
265 (FLLDKPQDLSI; listed as Homo sapiens) [compound 265] | +++ (≧50 = +++)
235 (SLLNQPKAV; listed as Homo sapiens) [compound 235] | ++ (≧20% = ++)
65 (SLSEKSPEV; listed as Homo sapiens) [compound 65] | ++ (≧20% = ++)
134 (SLYKSFLQL; listed as Homo sapiens) [compound 134] | ++ (≧20% = ++)
173 (RLIDIYKNV; listed as Homo sapiens) [compound 173] | +++ (≧50 = +++)
149 (NMADGQLHQV; listed as Homo sapiens) [compound 149] | ++ (≧20% = ++)
130 (QLYGSAITL; listed as Homo sapiens) [compound 130] | +++ (≧50 = +++)
20 (ALVEKGEFAL; listed as Homo sapiens) [compound 20] | ++ (≧20% = ++)
137 (KLIYKDLVSV; listed as Homo sapiens) [compound 137] | ++ (≧20% = ++)
200 (IMPTFDLTKV; listed as Homo sapiens) [compound 200] | +++ (≧50 = +++)
246 (ALAGIVTNV; listed as Homo sapiens) [compound 246] | +++ (≧50 = +++)
262 (LLLEAVWHL; listed as Homo sapiens) [compound 262] | +++ (≧50 = +++)
238 (HLQEKLQSL; listed as Homo sapiens) [compound 238] | ++ (≧20% = ++)
122 (SIIDTELKV; listed as Homo sapiens) [compound 122] | +++ (≧50 = +++)
159 (QLGPVPVTI; listed as Homo sapiens) [compound 159] | +++ (≧50 = +++)
25 (LLWGHPRVALA; listed as Homo sapiens) [compound 25] | +++ (≧50 = +++)
4 (VLFGELPAL; listed as Homo sapiens) [compound 4] | +++ (≧50 = +++)
